Numbers sourced from BindingDB's records for doi:10.1016/j.bmcl.2019.04.027.

test.summary: Inhibition of NS5A L31M mutant in HCV genotype 2a JFH1 infected in human HuH7 replicon cells assessed as reduction in viral replication after 3 days by luciferase reporter gene assay
experimental.endpoint: pEC50
The read-out pEC50 is expressed as -log10 of concentration in moles per litre.

query.smiles | experimental.endpoint | numeric.readout
CC[C@H](C)[C@H](NC(=O)OC)C(=O)N1CCC[C@H]1c1ncc(-c2cc3c4c(c2)OCc2cc(-c5cnc([C@@H]6CCCN6C(=O)[C@@H](NC(=O)OC)[C@@H](C)CC)[nH]5)cc(c2-4)OC3)[nH]1 | pEC50 | 7.92
COC(=O)N[C@H](C(=O)N1CCC[C@H]1c1ncc(-c2cc3c4c(c2)COc2cc(-c5cnc([C@@H]6CCCN6C(=O)[C@@H](NC(=O)OC)C(C)C)[nH]5)cc(c2-4)OC3)[nH]1)C(C)C | pEC50 | 8.01
COC(=O)N[C@H](C(=O)N1CCC[C@H]1c1ncc(-c2cc3c4c(c2)OCc2cc(-c5cnc([C@@H]6CCCN6C(=O)[C@@H](NC(=O)OC)C(C)C)[nH]5)cc(c2-4)OC3)[nH]1)C(C)C | pEC50 | 8.23

Now take the following molecule into account.
Answer with the recorded pEC50 for the molecule listed here: `COC(=O)N[C@H](C(=O)N1CCC[C@H]1c1ncc(-c2ccc3c4ccc(-c5cnc([C@@H]6CCCN6C(=O)[C@@H](NC(=O)OC)C(C)C)[nH]5)cc4c4ccccc4c3c2)[nH]1)C(C)C`
8.17
